Target Desc: T1, human Factor XIIa-beta (human, UniProt P00748 354-615, limits assumed)
T1 construct: Bought from Enzyme Research Laboratories; also called FXIIa beta; FXIIa-beta
T1 sequence: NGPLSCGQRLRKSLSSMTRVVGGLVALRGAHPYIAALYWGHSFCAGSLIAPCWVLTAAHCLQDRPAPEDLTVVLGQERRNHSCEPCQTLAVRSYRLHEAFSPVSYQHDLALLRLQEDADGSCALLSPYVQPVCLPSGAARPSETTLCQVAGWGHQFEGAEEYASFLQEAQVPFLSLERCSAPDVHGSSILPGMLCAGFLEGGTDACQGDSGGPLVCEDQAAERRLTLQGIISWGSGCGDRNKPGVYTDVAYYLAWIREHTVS
Procedure Text: SPR (Biacore), purified IgG4 captured on anti-human IgG, FXIIa beta 0-40 nM, 1:1 fit, 25 C
Measurement Name: kon (M⁻¹ s⁻¹)
Numeric only. Scale: M⁻¹ s⁻¹

VR119 (antibody, V domains shown) VH: EVQLLESGGGLVQPGGSLRLSCAASGFTFSKYIMQWVRQAPGKGLEWVSGINVPLYGTVYADSVKGRFTISRDNSKNTLYLQMNSLRAEDTAVYYCARALPRSGYLISPHYYYYALDVWGQGTTVTVSS VL: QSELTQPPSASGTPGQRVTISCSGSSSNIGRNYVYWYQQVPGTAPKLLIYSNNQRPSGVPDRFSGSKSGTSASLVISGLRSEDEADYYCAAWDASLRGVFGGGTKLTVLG | 160000
monoclonal antibody 3F7 (fully human IgG4/lambda) (antibody, V domains shown, also called 3F7 mAb; MAb 3F7) VH: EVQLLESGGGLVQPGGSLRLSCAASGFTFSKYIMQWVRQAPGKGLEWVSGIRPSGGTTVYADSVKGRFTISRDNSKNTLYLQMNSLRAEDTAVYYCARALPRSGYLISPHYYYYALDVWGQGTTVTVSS VL: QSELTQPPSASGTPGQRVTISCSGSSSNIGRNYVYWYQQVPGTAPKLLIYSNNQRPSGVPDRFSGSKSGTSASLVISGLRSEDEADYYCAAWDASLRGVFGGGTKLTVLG | 120000

# evaluate next
## Task Could you share which kon value was measured for VR115 (antibody, V domains shown) VH: EVQLLESGGGLVQPGGSLRLSCAASGFTFSKYIMQWVRQAPGKGLEWVSGIDIPTKGTVYADSVKGRFTISRDNSKNTLYLQMNSLRAEDTAVYYCARALPRSGYLISPHYYYYALDVWGQGTTVTVSS VL: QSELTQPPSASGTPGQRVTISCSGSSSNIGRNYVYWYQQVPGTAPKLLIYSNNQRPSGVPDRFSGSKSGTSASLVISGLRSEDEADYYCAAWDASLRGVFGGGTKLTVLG ?
## Result 170000

These measurements were taken from patent US20200062863A1.
